Test: logP by HPLC on reversed-phase column (EEC Directive 79/831 Annex V.A8)
Assay type: physicochemical
Conditions: HPLC on reversed-phase column (C 18), 40° C., 0.1% aqueous formic acid and acetonitrile, linear gradient 10% to 90% acetonitrile
MEASURE: logP

Incoming: Need logP, item Cn1nc(C(F)F)c(C(=O)N(Cc2cc(Cl)nc3ccccc23)C2CC2)c1F [Example 138]
Outgoing: 2.92

Incoming: Any idea what logP was measured for Cc1occc1C1(NC(=O)c2c(C(F)F)nn(C)c2F)CCCC1 [Example 24] ?
Outgoing: 2.92

Incoming: Item CN(Cc1cc(-c2ccc(Cl)cc2)no1)C(=O)c1c(C(F)F)nn(C)c1F [Example 152] has what recorded logP?
Outgoing: 3.04

###

Measured Efficacy, listed per entry for reference.
Test system: Alternaria solani
Assay: in vivo preventive test on Alternaria solani (tomato)
Conditions: 500 ppm of active ingredient, evaluated 7 days after inoculation
Hi! Could you send only the number? It should be in %, unit omitted.

Incoming: Fill in the blank: the reported Efficacy of Cn1nc(C(F)F)c(C(=S)N(Cc2csc3ccc(Cl)cc23)C2CC2)c1F is ____.
Outgoing: 90

Incoming: Look up Efficacy: Cn1nc(C(F)F)c(C(=S)N(Cc2cc3ccccc3o2)C2CC2)c1F
Outgoing: 90

Now, please, on to the next compound.
Incoming: May I ask what Efficacy has been recorded for Cc1nc(-c2ccc(Cl)cc2)sc1CN(C(=O)c1c(C(F)F)nn(C)c1F)C1CC1 ?
Outgoing: 90

###

Test: logP by HPLC on reversed-phase column (EEC Directive 79/831 Annex V.A8)
Type: physicochemical
Conditions: HPLC on reversed-phase column (C 18), 40° C., 0.1% aqueous formic acid and acetonitrile, linear gradient 10% to 90% acetonitrile
MEASURE: logP

Incoming: # input compound: Cn1nc(C(F)F)c(C(=O)N(Cc2cc(-c3ccccc3)no2)C2CC2)c1Cl ; wanted: its logP
Outgoing: 3.04

Incoming: # lookup: logP of Cn1nc(C(F)F)c(C(=S)N(Cc2cc3ccccc3o2)C2CC2)c1F
Outgoing: 3.76

Incoming: Using the record for Cn1nc(C(F)F)c(C(=O)NC2(c3ccco3)CCCC2)c1Cl , report its logP.
Outgoing: 2.86

###

Listed next: entries and their corresponding Efficacy.
Tested on: Pyrenophora teres
Assay: in vivo preventive test on Pyrenophora teres (barley)
Settings: 500 ppm of active ingredient, evaluated 7-9 days after inoculation
// note: answer is a bare numeric in %

Please review the following examples before continuing.
Incoming: Return reported Efficacy; argument: CC(c1cnc(Cl)c(Cl)c1)N(C(=O)c1c(C(F)F)nn(C)c1Cl)C1CC1 (stereo not shown)
Outgoing: 100

Incoming: Need Efficacy, item CN(Cc1sc2ccccc2c1Cl)C(=O)c1c(C(F)F)nn(C)c1F
Outgoing: 100

Incoming: Query: Efficacy; subject: Cn1nc(C(F)F)c(C(=O)N(Cc2csc3ccc(Cl)cc23)C2CC2)c1F
Outgoing: 100

Next:
Incoming: So what's the measured Efficacy for this one? Cc1c(CN(C(=O)c2c(C(F)F)nn(C)c2F)C2CC2)sc2ccccc12
Outgoing: 100

Incoming: What value of Efficacy has been reported for the following compound? CN(Cc1cc(CC(C)(C)C)no1)C(=O)c1c(C(F)F)nn(C)c1F
Outgoing: 100

Incoming: Reported Efficacy, compound Cn1nc(C(F)F)c(C(=S)N(Cc2csc3ccc(Cl)cc23)C2CC2)c1F : ____
Outgoing: 100

Incoming: Entry CC(c1csc2ccccc12)N(C(=O)c1c(C(F)F)nn(C)c1F)C1CC1 (racemic) : reported Efficacy = ?
Outgoing: 100

Incoming: I'd like to know its Efficacy. The compound in question is Cn1nc(C(F)F)c(C(=O)N(Cc2cccc3ccsc23)C2CC2)c1Cl
Outgoing: 95

###

Test: logP by HPLC on reversed-phase column (EEC Directive 79/831 Annex V.A8)
Type: physicochemical
Conditions: HPLC on reversed-phase column (C 18), 40° C., 0.1% aqueous formic acid and acetonitrile, linear gradient 10% to 90% acetonitrile
MEASURE: logP

Example compounds with recorded logP:
Incoming: Quick check: logP of CC(C)C(c1cncnc1)N(C)C(=O)c1c(C(F)F)nn(C)c1F (centres unmarked) ?
Outgoing: 1.65

Incoming: Consider the compound Cn1nc(C(F)F)c(C(=O)N(Cc2cccnc2)C2CCCCCC2)c1F and give its measured logP.
Outgoing: 1.66

Incoming: Quick one: logP for Cn1nc(C(F)F)c(C(=O)N(Cc2cc(-c3ccc(Cl)cc3)no2)C2CC2)c1F ?
Outgoing: 3.46

1. CN(Cc1ccc(Cl)nc1)C(=O)c1c(C(F)F)nn(C)c1F
2. Cn1nc(C(F)F)c(C(=O)N(Cc2cc3ccccc3n2-c2ccccc2)C2CC2)c1Cl
Incoming: Of 1 and 2 , whose reported logP is numerically smaller? Answer with the label corresponding to your selection.
Outgoing: 1
(1: 1.84, 2: 4.13)

###

Assay: logP by HPLC on reversed-phase column (EEC Directive 79/831 Annex V.A8)
Type: physicochemical
Settings: HPLC on reversed-phase column (C 18), 40° C., 0.1% aqueous formic acid and acetonitrile, linear gradient 10% to 90% acetonitrile
MEASURE: logP

Incoming: For the compound shown here, Cn1nc(C(F)F)c(C(=O)N(Cc2cccc3ccsc23)C2CC2)c1Cl , give the reported logP.
Outgoing: 3.31

Incoming: Which logP is reported for this compound? CC(C)Oc1ccc(CN(C)C(=O)c2c(C(F)F)nn(C)c2F)cn1
Outgoing: 2.45

Incoming: Entry under review: Cc1c(CN(C(=O)c2c(C(F)F)nn(C)c2Cl)C2CC2)sc2ccccc12 . Reported logP?
Outgoing: 3.74

Incoming: For Cc1ccsc1CN(C(=O)c1c(C(F)F)nn(C)c1F)C1CCCC1 , what is its reported logP?
Outgoing: 3.46

###

Test system: Pyrenophora teres
Assay: in vivo preventive test on Pyrenophora teres (barley)
Details: 500 ppm of active ingredient, evaluated 7-9 days after inoculation
// values below are reported Efficacy
Could you give me the number in %? Just the number is fine.

Here is how some molecules turned out for Efficacy.
Incoming: Recorded Efficacy for CC(c1cc2ccccc2o1)N(C(=O)c1c(C(F)F)nn(C)c1F)C1CC1 (racemic) with Pyrenophora teres, please?
Outgoing: 100

Incoming: Param readout = Efficacy; param system = Pyrenophora teres; param query = CC(c1cccc2ccsc12)N(C(=O)c1c(C(F)F)nn(C)c1Cl)C1CC1 (centres unmarked) ; response: value
Outgoing: 100

Incoming: Can you look up Efficacy on Pyrenophora teres for Cn1nc(C(F)F)c(C(=O)N(Cc2cccc3ccsc23)C2CC2)c1F ?
Outgoing: 100

Incoming: Test system Pyrenophora teres; read-out Efficacy; what value for Cn1nc(C(F)F)c(C(=O)N(Cc2cc3ccccc3o2)C2CC2)c1F ?
Outgoing: 100

Incoming: Lab note: need Efficacy with Pyrenophora teres for entry CC(NC(=O)c1c(C(F)F)nn(C)c1Cl)c1cc2ccccc2s1 (racemic) , please look it up.
Outgoing: 90

Incoming: Recorded Efficacy for Cn1nc(C(F)F)c(C(=S)N(Cc2cccc3ccsc23)C2CC2)c1F with Pyrenophora teres, please?
Outgoing: 100

Incoming: Provide value of Efficacy for this record tested with Pyrenophora teres: Cn1nc(C(F)F)c(C(=O)N(Cc2cc3ccccc3n2-c2ccccc2)C2CC2)c1Cl
Outgoing: 90

Incoming: Value wanted: Efficacy (Pyrenophora teres) of entry Cn1nc(C(F)F)c(C(=O)N(Cc2ccnc3ccc(Cl)cc23)C2CC2)c1F
Outgoing: 100

Further cases:
Incoming: Under Pyrenophora teres: Efficacy value of CC(c1cccnc1Cl)N(C(=O)c1c(C(F)F)nn(C)c1F)C1CC1 (centres unmarked) ?
Outgoing: 100

Incoming: // fetch Pyrenophora teres Efficacy for Cc1ccsc1CN(C(=O)c1c(C(F)F)nn(C)c1F)C1CC1
Outgoing: 100

Incoming: What reported Efficacy corresponds to Cn1nc(C(F)F)c(C(=O)N(Cc2cc(-c3cc(F)c(F)c(F)c3)no2)C2CC2)c1Cl on Pyrenophora teres?
Outgoing: 90

###

System: Pyrenophora teres
Test: in vivo preventive test on Pyrenophora teres (barley)
Conditions: 500 ppm of active ingredient, evaluated 7-9 days after inoculation
Procedure: Solvent: 49 parts by weight of N,N-dimethylformamide Emulsifier: 1 part by weight of alkylaryl polyglycol ether To produce a suitable preparation of active compound, 1 part by weight of active compound is mixed with the stated amounts of solvent and emulsifier, and the concentrate is diluted with water to the desired concentration. […] The test is evaluated 7-9 days after the inoculation. […]
MEASURE: Efficacy (%)
A number alone suffices; assume %.

Incoming: Look up Efficacy: CC(NC(=O)c1c(C(F)F)nn(C)c1F)c1cc2ccccc2s1 (racemic) [Example 82]
Outgoing: 90

Incoming: Look up Efficacy: Cn1nc(C(F)F)c(C(=O)N(Cc2cccs2)C2CC2)c1F [Example 32]
Outgoing: 100

Incoming: Would you kindly share the measured Efficacy for Cc1sc(-c2ccccc2)cc1C(C)N(C(=O)c1c(C(F)F)nn(C)c1F)C1CC1 (centres unmarked) [Example 147] ?
Outgoing: 100

Incoming: What value of measured Efficacy is listed for Cn1nc(C(F)F)c(C(=O)N(Cc2cc3ccccc3o2)C2CC2)c1Cl [Example 72] ?
Outgoing: 90

Incoming: Quick one: Efficacy for CC(c1csc2ccccc12)N(C(=S)c1c(C(F)F)nn(C)c1F)C1CC1 (racemic) [Example 86] ?
Outgoing: 100

***
Incoming: Fill blank: measured Efficacy of the compound Cc1cc(C(C)N(C(=O)c2c(C(F)F)nn(C)c2Cl)C2CC2)c(C)s1 (centres unmarked) [Example 49] is ____.
Outgoing: 95

Incoming: I would be grateful if you could share the reported Efficacy for Cn1nc(C(F)F)c(C(=O)N(Cc2csc3ccccc23)C2CC2)c1Cl [Example 89] .
Outgoing: 95

Incoming: Param item = Cn1nc(C(F)F)c(C(=O)N(Cc2c(C(F)(F)F)nn(C)c2OC(F)F)C2CC2)c1F [Example 170] ; retrieve measured Efficacy.
Outgoing: 100

Incoming: Query: Efficacy; subject: Cn1nc(C(F)F)c(C(=O)N(Cc2cc(CC(C)(C)C)no2)C2CC2)c1Cl [Example 107]
Outgoing: 80

Incoming: Quick one: Efficacy for Cn1nc(C(F)F)c(C(=O)N(Cc2csc3ccc(Cl)cc23)C2CC2)c1Cl [Example 144] ?
Outgoing: 100

Incoming: Request the reported Efficacy associated with Cc1nc(C(F)(F)F)c(CN(C(=O)c2c(C(F)F)nn(C)c2F)C2CC2)s1 [Example 140]
Outgoing: 100

Incoming: Dear colleague, I am looking for the recorded Efficacy of the following compound: Cn1nc(C(F)F)c(C(=O)N(Cc2cccnc2)C2CCCCCC2)c1Cl [Example 15]
Outgoing: 75

Incoming: Given the compound CC(C)N(Cc1cnn(-c2ccc(Cl)cc2)c1)C(=O)c1c(C(F)F)nn(C)c1Cl [Example 151] , what is its reported Efficacy?
Outgoing: 75

Incoming: I'd like to know its Efficacy. The compound in question is CC(c1cnc(Cl)c(Cl)c1)N(C(=O)c1c(C(F)F)nn(C)c1F)C1CC1 (centres unmarked) [Example 121]
Outgoing: 100

Incoming: What does the record list as Efficacy for CC(c1cc(Cl)sc1Cl)N(C(=O)c1c(C(F)F)nn(C)c1F)C1CC1 (centres unmarked) [Example 128] ?
Outgoing: 100

Incoming: For the compound shown here, CN(Cc1cc(-c2cc(F)c(F)c(F)c2)no1)C(=O)c1c(C(F)F)nn(C)c1F [Example 164] , give the reported Efficacy.
Outgoing: 100

Incoming: Please report the recorded Efficacy for Cc1c(CN(C(=O)c2c(C(F)F)nn(C)c2Cl)C2CC2)sc2ccccc12 [Example 123] .
Outgoing: 90
